- target.or.system: UniProt P17752
- Sequence (whole entry): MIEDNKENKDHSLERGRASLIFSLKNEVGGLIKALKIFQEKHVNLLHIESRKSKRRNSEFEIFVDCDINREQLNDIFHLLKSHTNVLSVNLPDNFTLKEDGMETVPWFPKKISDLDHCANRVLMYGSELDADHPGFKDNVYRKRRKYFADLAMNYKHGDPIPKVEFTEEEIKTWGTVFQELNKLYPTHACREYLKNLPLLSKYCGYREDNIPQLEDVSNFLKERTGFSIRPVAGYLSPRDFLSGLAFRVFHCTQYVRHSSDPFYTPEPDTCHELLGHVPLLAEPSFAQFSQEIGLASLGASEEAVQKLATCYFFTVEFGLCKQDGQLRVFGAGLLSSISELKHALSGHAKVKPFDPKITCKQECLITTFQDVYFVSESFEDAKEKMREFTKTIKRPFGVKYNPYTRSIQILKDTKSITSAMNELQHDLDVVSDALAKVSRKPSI
- protocol.details: Inhibition of TPH1 ( unknown origin ) at 1 uM relative to control
// label = class 1 if inhibition is not less than 50%, otherwise class 0

In [3]: df
Out[3]:
                               query_smiles    class
0  CCn1c(=O)[nH]c(=O)c2c1nc(Cc1cn3ccsc3n1)n2CC(=O)c1ccccc1OC  class 0
1  CCn1c(=O)[nH]c(=O)c2c1nc(Cc1cn3ccsc3n1)n2CC(=O)c1ccc(C(F)(F)F)cc1  class 0
2  CCn1c(=O)[nH]c(=O)c2c1nc(Cc1cn3ccsc3n1)n2CC(=O)c1ccc(Br)cc1  class 0
3  CCn1c(=O)[nH]c(=O)c2c1nc(Cc1cn3ccsc3n1)n2CC(=O)c1ccc(N)cc1  class 1
4  CCn1c(=O)[nH]c(=O)c2c1nc(Cc1cn3ccsc3n1)n2CC(=O)c1ccc(CO)cc1  class 1

Data provenance: ChEMBL document CHEMBL5365453
